This collection of values is drawn from patent US9546162B2.

Biological target: EP4 (Homo sapiens (Human))
Sequence (P35408 whole entry): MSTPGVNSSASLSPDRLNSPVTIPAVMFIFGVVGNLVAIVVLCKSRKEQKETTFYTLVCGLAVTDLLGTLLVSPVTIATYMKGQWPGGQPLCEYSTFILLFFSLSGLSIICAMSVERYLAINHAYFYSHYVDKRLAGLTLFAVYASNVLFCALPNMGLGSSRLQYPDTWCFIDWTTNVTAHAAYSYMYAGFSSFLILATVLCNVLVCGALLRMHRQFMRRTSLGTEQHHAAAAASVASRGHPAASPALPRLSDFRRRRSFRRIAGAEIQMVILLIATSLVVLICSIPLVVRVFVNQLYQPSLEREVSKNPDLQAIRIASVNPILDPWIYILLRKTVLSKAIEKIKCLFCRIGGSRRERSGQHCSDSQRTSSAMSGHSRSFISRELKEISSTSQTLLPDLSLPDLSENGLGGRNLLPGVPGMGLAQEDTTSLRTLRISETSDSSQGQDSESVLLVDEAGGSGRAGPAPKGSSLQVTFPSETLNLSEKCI
Assay: EP4 cAMP EC50
Assay type: cell-based
quantity: pEC50
Note on pEC50: it is the negative log10 of concentration, concentration in mol/L.

[[record]]
item_smiles = "COc1cc(CC2=CCc3c(F)ccc(CCc4ccc(C(=O)O)cc4)c32)cc(OC)c1"
study_target = "EP4 (Homo sapiens (Human))"
result = 7.39

[[record]]
item_smiles = "COc1cc(/C=C2\\CCc3cccc(CCc4ccc(C(=O)O)cc4)c32)cc(OC)c1"
study_target = "EP4 (Homo sapiens (Human))"
result = 8.15

[[record]]
item_smiles = "COc1cccc(CC2=CCc3cccc(CCc4ccc(C(=O)O)cc4)c32)c1OC"
study_target = "EP4 (Homo sapiens (Human))"
result = 6.25


Query (molecule): `O=C(O)c1ccc(CCc2cccc3c2C(Cc2cc(C(F)(F)F)cc(C(F)(F)F)c2)=CC3)cc1` ; field requested: pEC50
6.53

Next molecule up: `Cc1cc(C)cc(CC2=CCc3cccc(CCc4ccc(C(=O)O)cc4)c32)c1`
6.66

Next molecule up: `COc1cc(CC2=CCc3cc(F)cc(CCc4ccc(C(=O)O)cc4)c32)cc(OC)c1`
8.70

Next molecule up: `COc1ccc(CC2=CCc3cccc(CCc4ccc(C(=O)O)cc4)c32)cc1OC`
7.48

Next molecule up: `O=C(O)c1ccc(CCc2cccc3c2C(Cc2cc(F)cc(F)c2)=CC3)cc1`
7.24
